# System: delayed type hypersensitivity (DTH) mediated inflammation in mice
# assayInfo: In vivo model of delayed type hypersensitivity (DTH), paw inflammation score
# Parameters: species or system CF-1 mice
# conditions: 5 mg/kg intraperitoneal, four doses; paw scored 16 hrs after mBSA; scale 1-5; n=5 mice/group
# Source text: Effects of CB Compounds 1-14 on an in vivo model of delayed type hypersensitivity (DTH). […] The paw was scored 16 hrs later by 2 investigators naive to the experimental condition and according to the following criteria: 1=absence of any inflammation; 2=slight rubor and edema; 3=moderate rubor and edema with skin wrinkles; 4=severe rubor and edema without skin wrinkles and 5=severe rubor and edema with toe spreading. […]
property: Inflammation Score Compound ± SEM

# annotated cases, reported Inflammation Score Compound ± SEM shown
# molecule, property, valueReported
data = [
    ("CC1=NN(c2nc3ccccc3[nH]2)C(=O)C1CCC(C)C (centres unmarked)", "Inflammation Score Compound ± SEM", "3.2 ± 0.84/3.6 ± 0.55"),
    ("Cc1c(Cl)cccc1NC(=O)CNC(=O)c1ccccc1F", "Inflammation Score Compound ± SEM", "3.4 ± 0.55/3.4 ± 0.55"),
]

# batch size: 2; output Inflammation Score Compound ± SEM per entry
1. COc1ccccc1-c1cc(C(F)(F)F)nc(N2CCOCC2)n1
2. Cc1cc2n(c1)CCn1c(C)ccc1-2

a:
1. 3.4 ± 0.55/3.6 ± 0.55
2. 3.2 ± 0.45/3.4 ± 0.55

---

# assayedTarget: RAGE tail (ctRAGE) binding to mDial (Homo sapiens (Human), UniProt Q15109)
# Sequence (Q15109 364-404): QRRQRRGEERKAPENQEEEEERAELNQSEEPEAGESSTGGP
# assayInfo: Primary screen: binding of GFP RAGE tail to mDial at one concentration (10 uM)
# conditions: 10 μM compound
property: inhibition at 10 µM (%)
Numbers only, in %.

# compound, assayedTarget, valueReported
rows = [
    ("CN(Cc1ccccc1)CC(O)Cn1cnc2ccccc21 (stereo not drawn) [CD-7]", "RAGE tail (ctRAGE) binding to mDial (Homo sapiens (Human), UniProt Q15109)", 31),
]

Dear reader, for each entry below, please note its inhibition at 10 µM.
1. COc1ccccc1-c1cc(C(F)(F)F)nc(N2CCN(c3ccccc3OC)CC2)n1 [CD-42]
2. CC(=O)Nc1ccc(C(=O)Nc2nccs2)cc1 [CD-1]
3. O=C(O)COc1ccc2c(C(F)(F)F)cc(=O)oc2c1 [CD-12]
4. OC(COc1cccc2ccccc12)Cn1cnc2ccccc21 (stereo not drawn) [CD-16]
5. N#Cc1ccc(OCC(O)Cn2cnc3ccccc32)cc1 (stereo not drawn) [CD-8]
6. OC(COc1ccccc1)Cn1cnc2ccccc21 (stereo not drawn) [CD-28]

a:
[42, 31, 11, 69, 27, 37]

List inhibition at 10 µM for every entry below, keeping the order given.
1. COc1ccccc1-c1cc(C(F)(F)F)nc(NC2CCCCC2)n1 [CD-21]
2. OC(CN(c1ccccc1)c1ccccc1)Cn1cnc2ccccc21 (stereo not drawn) [CD-18]

a:
18
45

Would you mind giving inhibition at 10 µM for every compound in the list below?
1. O=C(O)c1ccccc1OCC(O)Cn1cnc2ccccc21 (stereo not drawn) [CD-19]
2. CC1=NN(c2nc3ccccc3s2)C(=O)C1CCC(C)C (stereo not drawn) [CD-20]
3. OC(COCc1ccccc1)Cn1cnc2ccccc21 (stereo not drawn) [CD-14]

a:
1: 24; 2: 48; 3: 26

---

# Test system: delayed type hypersensitivity (DTH) mediated inflammation in mice
# assayInfo: In vivo model of delayed type hypersensitivity (DTH), paw inflammation score
# Design: species or system CF-1 mice
# conditions: 5 mg/kg intraperitoneal, four doses; paw scored 16 hrs after mBSA; scale 1-5; n=5 mice/group
Assignment: determine reported Inflammation Score Compound ± SEM for the given compounds.

# compound, valueReported
measured = [
    ("COc1cc(SC)ccc1C(=O)Nc1cccc(C)n1 [CB-1]", "3.4 ± 0.55/3.4 ± 0.55"),
]

Hey, can you go through the list below and give me Inflammation Score Compound ± SEM for every item?
1. COC(=O)c1cc(OC)c(OC)cc1NC(=O)C1Oc2ccccc2OC1C (stereo not drawn) [CB-8]
2. Cc1ccc(S(=O)(=O)N(C)C(F)F)cc1 [CB-9]
3. COC(=O)c1cc(-c2ccc(NC(C)=O)cc2)nc2ccccc12 [CB-12]

a:
1: 3.4 ± 0.55/3.6 ± 0.55; 2: 3.6 ± 0.55/3.6 ± 0.55; 3: 2.4 ± 0.55/3.4 ± 0.55

Please state Inflammation Score Compound ± SEM for every compound in the list that follows.
1. Cc1nc2ccccc2n1CC(O)Cn1c2ccccc2c2ccccc21 (stereo not drawn) [CB-3]
2. Oc1ccc(NCc2ccc(Br)cc2)cc1 [CB-14]

a:
2.2 ± 0.45/3.4 ± 0.55
3.2 ± 0.45/3.4 ± 0.55
